# study.target: Mtb DNA gyrase (Mycobacterium tuberculosis, UniProt P9WG45+P9WG47)
# Sequence (P9WG45 whole entry): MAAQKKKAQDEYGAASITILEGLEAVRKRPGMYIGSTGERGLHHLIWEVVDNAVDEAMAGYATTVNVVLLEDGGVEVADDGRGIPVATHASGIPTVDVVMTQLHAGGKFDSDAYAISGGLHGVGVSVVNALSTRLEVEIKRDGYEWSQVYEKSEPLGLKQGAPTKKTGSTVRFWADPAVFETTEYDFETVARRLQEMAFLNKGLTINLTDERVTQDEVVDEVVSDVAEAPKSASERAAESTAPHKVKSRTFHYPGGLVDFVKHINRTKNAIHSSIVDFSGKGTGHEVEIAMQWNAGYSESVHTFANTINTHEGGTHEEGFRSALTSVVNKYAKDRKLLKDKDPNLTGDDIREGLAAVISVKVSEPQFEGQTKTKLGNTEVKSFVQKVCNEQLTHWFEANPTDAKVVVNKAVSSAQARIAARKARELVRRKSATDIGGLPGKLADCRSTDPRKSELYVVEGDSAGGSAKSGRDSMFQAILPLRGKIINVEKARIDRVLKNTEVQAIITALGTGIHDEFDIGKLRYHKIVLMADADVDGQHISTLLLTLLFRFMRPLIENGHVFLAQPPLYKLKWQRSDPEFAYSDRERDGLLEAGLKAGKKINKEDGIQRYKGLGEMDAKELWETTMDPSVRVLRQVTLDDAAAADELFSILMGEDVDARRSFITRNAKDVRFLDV
# Sequence (P9WG47 whole entry): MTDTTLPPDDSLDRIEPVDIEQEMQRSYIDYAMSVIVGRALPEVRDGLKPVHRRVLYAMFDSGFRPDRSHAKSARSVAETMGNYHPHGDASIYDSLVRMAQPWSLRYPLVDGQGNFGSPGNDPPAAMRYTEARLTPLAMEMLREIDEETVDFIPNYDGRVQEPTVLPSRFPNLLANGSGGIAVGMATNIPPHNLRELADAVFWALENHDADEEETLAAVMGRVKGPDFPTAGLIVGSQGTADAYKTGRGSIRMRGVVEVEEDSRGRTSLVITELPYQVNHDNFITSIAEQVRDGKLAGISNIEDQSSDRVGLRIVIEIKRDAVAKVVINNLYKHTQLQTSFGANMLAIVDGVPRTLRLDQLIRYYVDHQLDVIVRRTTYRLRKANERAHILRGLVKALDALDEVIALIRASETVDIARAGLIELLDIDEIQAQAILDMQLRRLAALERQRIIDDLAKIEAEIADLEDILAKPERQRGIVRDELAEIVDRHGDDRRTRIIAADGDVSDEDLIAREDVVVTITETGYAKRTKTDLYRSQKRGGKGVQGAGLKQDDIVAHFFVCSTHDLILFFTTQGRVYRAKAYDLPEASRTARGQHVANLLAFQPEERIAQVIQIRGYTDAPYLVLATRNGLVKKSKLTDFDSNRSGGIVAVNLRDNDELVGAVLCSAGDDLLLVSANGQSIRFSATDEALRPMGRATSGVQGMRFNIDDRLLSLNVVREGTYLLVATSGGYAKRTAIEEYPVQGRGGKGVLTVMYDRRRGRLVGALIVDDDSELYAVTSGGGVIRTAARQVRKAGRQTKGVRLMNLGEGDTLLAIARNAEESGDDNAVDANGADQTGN
# experimental.protocol: Mtb DNA gyrase supercoiling inhibition assay
# Format: biochemical, Mycobacterium tuberculosis strain H37RV
# measurement.parameters: supercoiling of relaxed pBR322 DNA, 60 minutes at 37 °C, inhibitor 1.56 to 200 µM; read-out: Mtb wt gyrase IC50
assay.endpoint: IC50

Please tell me: IC50 of `O=C1/C(=N\NC(=O)C23CC4CC(CC(C4)C2)C3)c2ccccc2N1c1ccccc1` , system Mtb DNA gyrase (Mycobacterium tuberculosis, UniProt P9WG45+P9WG47)?
> 200 µM
